- system_tested: T1, cynomolgus monkey serum albumin (cynomolgus monkey, UniProt A2V9Z4 25-608)
- T1 construct: bought protein, amine-coupled to a CM5 chip; also called Cyno SA
- protocol_description: SPR (Biacore 8K), albumin immobilised, 25 C, 1:1 kinetics
Below: a set of entries, each annotated with reported kon.
// note: answer is a bare numeric in M⁻¹ s⁻¹

| binder | kon [M⁻¹ s⁻¹] |
| --- | --- |
| INS Analog 23 (other, single-chain insulin B-L2-A-L1-VHH fusion; also called Ex. 23) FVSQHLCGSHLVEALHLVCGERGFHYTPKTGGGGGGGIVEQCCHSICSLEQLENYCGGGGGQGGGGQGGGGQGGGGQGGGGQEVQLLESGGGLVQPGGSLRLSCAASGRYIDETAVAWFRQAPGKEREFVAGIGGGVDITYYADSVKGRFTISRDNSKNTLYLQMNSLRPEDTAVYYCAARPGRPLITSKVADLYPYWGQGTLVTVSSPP | 120000 |
| INS Analog 28 (other, single-chain insulin B-L2-A-L1-VHH fusion; also called Ex. 28) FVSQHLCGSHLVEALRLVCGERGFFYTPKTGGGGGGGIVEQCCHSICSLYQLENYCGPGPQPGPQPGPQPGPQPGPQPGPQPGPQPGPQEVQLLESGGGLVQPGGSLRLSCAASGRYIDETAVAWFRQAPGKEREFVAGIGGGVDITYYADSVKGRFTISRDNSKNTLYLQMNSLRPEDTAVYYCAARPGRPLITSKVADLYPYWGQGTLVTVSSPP | 170000 |
| INS Analog 30 (other, single-chain insulin B-L2-A-L1-VHH fusion; also called Ex. 30) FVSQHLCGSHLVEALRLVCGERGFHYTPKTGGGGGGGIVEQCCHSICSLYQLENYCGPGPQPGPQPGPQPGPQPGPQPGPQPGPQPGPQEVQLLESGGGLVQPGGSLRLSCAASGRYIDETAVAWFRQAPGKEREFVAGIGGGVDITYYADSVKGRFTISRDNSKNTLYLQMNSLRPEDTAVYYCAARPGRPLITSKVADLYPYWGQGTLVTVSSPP | 160000 |

Given the binder INS Analog 27 (other, single-chain insulin B-L2-A-L1-VHH fusion; also called Ex. 27) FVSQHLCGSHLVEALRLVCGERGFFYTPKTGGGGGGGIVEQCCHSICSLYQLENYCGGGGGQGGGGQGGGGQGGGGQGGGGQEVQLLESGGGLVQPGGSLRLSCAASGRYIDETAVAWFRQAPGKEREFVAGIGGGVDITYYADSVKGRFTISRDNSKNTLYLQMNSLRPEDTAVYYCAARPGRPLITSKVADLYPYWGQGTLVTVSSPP , write its reported kon.
170000

# credit: patent US20220378931A1
